Experiment: inhibitors of Clostridioides difficile proliferation – 4-point retest, confirmation (AID 1224921);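 also: plate controls were DMSO wells for no effect and levofloxacin 16 µg/mL wells for full effect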
Settings: Clostridioides difficile clinical isolate growth, OD600, 24 h, hits give low values; at 30 µM unless noted
Hit rate of the full screen: of about 1,400 compounds, about 350 (25%) were called active. Inconclusive results (about 2%) are left out. Only a sample is shown. Results with a measured potency or affinity are listed apart.
Assign max activity to each entry below.

Record C[C@H]1CN([C@@H](C)CO)C(=O)c2cc(NC(=O)CCC(F)(F)F)ccc2O[C@H]1CN(C)Cc1ccc(-c2ccccc2)cc1 . Reported max activity: 46.6% (inactive)

Record COc1cccc(C#Cc2ccc3c(c2)O[C@@H](CN(C)C)[C@@H](C)CN([C@H](C)CO)S3(=O)=O)c1 . Reported max activity: 29.6% (inactive)

Record C[C@H](CO)N1C[C@H](C)[C@H](CN(C)Cc2ccc3c(c2)OCO3)OCCCC[C@H](C)Oc2ccc(NC(=O)Nc3ccc(F)cc3)cc2C1=O . Reported max activity: -7.04% [at 0.5 µM] (inactive)

Record C[C@@H]1CN([C@@H](C)CO)S(=O)(=O)c2ccc(C#Cc3ccc(F)cc3)cc2O[C@@H]1CN(C)C(=O)NC1CCCCC1 . Reported max activity: -4.75% [at 8 µM] (inactive)

Record C[C@H](CO)N1C[C@H](C)[C@H](CN(C)Cc2ccc3c(c2)OCO3)OCCCC[C@H](C)Oc2ccc(NC(=O)Nc3ccc(C(F)(F)F)cc3)cc2C1=O . Reported max activity: 31.6% [at 0.5 µM] (inactive)

Record C[C@@H]1CCCCO[C@H](CN(C)Cc2ccc3c(c2)OCO3)[C@@H](C)CN([C@H](C)CO)C(=O)c2cc(NC(=O)Nc3ccc(C(F)(F)F)cc3)ccc2O1 . Reported max activity: 15.4% [at 1.95 µM] (inactive)

Record Cc1noc(C)c1NC(=O)N[C@@H]1CC[C@H](CC(=O)Nc2ccc(-c3ccccc3)cc2)O[C@@H]1CO . Reported max activity: 42% (inactive)

Record C[C@@H]1CN([C@H](C)CO)C(=O)c2cc(NC(=O)Nc3ccc(F)cc3)ccc2O[C@@H](C)CCCCO[C@H]1CN(C)Cc1ccc2c(c1)OCO2 . Reported max activity: -9.48% (inactive)

Record C[C@H](CO)N1C[C@H](C)[C@@H](CN(C)C(=O)Nc2ccccc2)Oc2c(NC(=O)Nc3ccc(C(F)(F)F)cc3)cccc2C1=O . Reported max activity: 46.6% [at 8 µM] (inactive)

Record C[C@@H]1CN([C@H](C)CO)S(=O)(=O)c2ccc(C#CC3CCCC3)cc2O[C@@H]1CN(C)Cc1cccnc1 . Reported max activity: 27.7% (inactive)

Record CC(=O)N(C)C[C@H]1Oc2ncc(-c3ccc(C(=O)N(C)C)cc3)cc2C(=O)N([C@H](C)CO)C[C@H]1C . Reported max activity: -8.17% (inactive)

Record Cc1ccccc1S(=O)(=O)NCC[C@@H]1CC[C@@H](NC(=O)Nc2cccc(Cl)c2)[C@@H](CO)O1 . Reported max activity: 23.9% (inactive)

Record C[C@@H]1CN([C@H](C)CO)C(=O)c2cc(NC(=O)Nc3ccc(C(F)(F)F)cc3)ccc2O[C@@H](C)CCCCO[C@@H]1CN(C)Cc1ccc2c(c1)OCO2 . Reported max activity: 29.4% [at 1.95 µM] (inactive)

Record C[C@@H]1CN([C@H](C)CO)S(=O)(=O)c2ccc(C#CCC3CCCC3)cc2O[C@H]1CN(C)C(=O)CC1CC1 . Reported max activity: 15.9% (inactive)
